target: σ1-receptor (Cavia porcellus)
Structures can show the parent of a compound that is named as a salt.
observation-type: pKi
As a rule, pKi stands for the negative log10 of the concentration, concentration in M.

Query string: Form entry - test system: σ1-receptor (Cavia porcellus); read-out: pKi; compound: CCCCCc1ccc2c(c1)[C@H]1OCC[C@H]1[C@@H](C1CCOCC1)N2 (racemic) [Example 85, hydrochloride]
Result string: 6.81

---

target: σ1-receptor (Cavia porcellus, UniProt Q60492)
Sequence (Q60492 whole entry): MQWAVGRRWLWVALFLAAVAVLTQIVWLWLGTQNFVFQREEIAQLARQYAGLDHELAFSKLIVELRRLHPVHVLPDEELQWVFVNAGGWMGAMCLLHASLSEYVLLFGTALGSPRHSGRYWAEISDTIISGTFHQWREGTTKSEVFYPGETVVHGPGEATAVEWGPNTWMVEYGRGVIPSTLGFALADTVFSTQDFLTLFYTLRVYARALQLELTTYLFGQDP
Counter-ions that a name gives are not always drawn.
observation-type: log10(Ki) (log10 of the value in nM)
Plainly stated, the numbers are log10 of Ki given in nM.

Clc1ccc(Oc2ccc3c(c2)[C@H]2OCCC[C@H]2[C@@H](C2CCCCC2)N3)cc1 (racemic) [Example 55, hydrochloride]	2.29
CCCCOc1ccc2c(c1)[C@H]1OCCC[C@H]1[C@@H](C1CCCCC1)N2 (racemic) [Example 16, hydrochloride]	2.09
CCCCCc1ccc2c(c1)[C@H]1OCCC[C@H]1[C@@H](C1CCCCC1)N2 (racemic) [Example 59]	2.12
Clc1ccc(Oc2ccc3c(c2)[C@H]2OCC[C@H]2[C@@H](C2CCCCC2)N3)cc1Cl (racemic) [Example 92, hydrochloride]	2.04
CCCCCc1ccc2c(c1)[C@H]1OCCC[C@H]1[C@@H](C1CCCCC1)N2 (racemic) [Example 60, hydrochloride]	1.63

Query string: Form entry - test system: σ1-receptor (Cavia porcellus, UniProt Q60492); read-out: log10(Ki); compound: Clc1ccc(Oc2ccc3c(c2)[C@H]2OCC[C@H]2[C@@H](C2CCCCC2)N3)cc1 (racemic) [Example 87, hydrochloride]
Result string: 2.48

Query string: Form entry - test system: σ1-receptor (Cavia porcellus, UniProt Q60492); read-out: log10(Ki); compound: CC(C)CCOc1ccc2c(c1)[C@H]1OCCC[C@H]1[C@@H](C1CCCC1)N2 (racemic) [Example 105, hydrochloride]
Result string: 2.09

Query string: Form entry - test system: σ1-receptor (Cavia porcellus, UniProt Q60492); read-out: log10(Ki); compound: c1cc2c(cc1OCCN1CCOCC1)[C@H]1OCCC[C@H]1[C@@H](C1CCCCC1)N2 (racemic)
Result string: 2.49

Query string: Form entry - test system: σ1-receptor (Cavia porcellus, UniProt Q60492); read-out: log10(Ki); compound: CC(C)CCOc1ccc2c(c1)[C@H]1OCCC[C@H]1[C@@H](C1CCN(Cc3ccccc3)CC1)N2 (racemic) [Example 6, hydrochloride]
Result string: 1.18

Query string: Form entry - test system: σ1-receptor (Cavia porcellus, UniProt Q60492); read-out: log10(Ki); compound: CCCCCc1ccc2c(c1)[C@H]1OCC[C@H]1[C@@H](C1CCSCC1)N2 (racemic) [Example 95, hydrochloride]
Result string: 1.95

---

The entries below come with measured Ki values attached.
target: σ1-receptor (Cavia porcellus)
Counter-ions that a name gives are not always drawn.
Output spec: scalar in nM, unitless text.

CC(C)CCOc1ccc2c(c1)[C@H]1OCC[C@H]1[C@@H](C1CCCCC1)N2 (racemic) [Example 32, hydrochloride]	108

Query string: Data request, read-out Ki, for Clc1ccc(Oc2ccc3c(c2)[C@H]2OCCC[C@H]2[C@@H](C2CCCCC2)N3)cc1Cl (racemic) [Example 93, hydrochloride]
Result string: 79.3

Query string: Data request, read-out Ki, for c1cc2c(cc1OCCN1CCOCC1)[C@H]1OCC[C@H]1[C@@H](C1CCCCC1)N2 (racemic) [Example 41, hydrochloride]
Result string: 131

Query string: Data request, read-out Ki, for NCCCOc1ccc2c(c1)[C@H]1OCCC[C@H]1[C@@H](C1CCCCC1)N2 (racemic) [Example 112, hydrochloride]
Result string: 134

Query string: Data request, read-out Ki, for Clc1ccc(Oc2ccc3c(c2)[C@H]2OCC[C@H]2[C@@H](C2CCCCC2)N3)cc1 (racemic) [Example 86]
Result string: 78.2

Query string: Data request, read-out Ki, for CCCCCc1ccc2c(c1)[C@H]1OCCC[C@H]1[C@@H](C1CCOCC1)N2 (racemic) [Example 63, hydrochloride]
Result string: 61.9

Query string: Data request, read-out Ki, for CC(C)CCOc1ccc2c(c1)[C@H]1OCCC[C@H]1[C@@H](C1CCOCC1)N2 (racemic) [Example 101, hydrochloride]
Result string: 84

---

The entries below come with measured pKi values attached.
biological target: σ1-receptor (Cavia porcellus)
Counter-ions that a name gives are not always drawn.
As a rule, pKi stands for the negative log10 of the concentration, concentration in M.

Use these answered entries as a reference point.
c1ccc(Oc2ccc3c(c2)[C@H]2OCCC[C@H]2[C@@H](C2CCSCC2)N3)cc1 (racemic) [Example 71, hydrochloride]	6.46
c1cc2c(cc1N1CCOCC1)[C@H]1OCC[C@H]1[C@@H](C1CCCCC1)N2 (racemic) [Example 103, hydrochloride]	6.47
Fc1ccc(COc2ccc3c(c2)[C@H]2OCC[C@H]2[C@@H](C2CCCCC2)N3)cc1 (racemic) [Example 91, hydrochloride]	6.57
CC(C)CCOc1ccc2c(c1)[C@H]1OCCC[C@H]1[C@@H](C1CCCCC1)N2 (racemic) [Example 27, hydrochloride]	7.29
CCCCCc1ccc2c(c1)[C@H]1OCC[C@H]1[C@@H](C1CCCCC1)N2 (racemic) [Example 84, hydrochloride]	6.61

Please examine the following record next.
Query string: Data request, read-out pKi, for NCCCCOc1ccc2c(c1)[C@H]1OCCC[C@H]1[C@@H](C1CCCCC1)N2 (racemic) [Example 111, hydrochloride]
Result string: 6.62

---

Counter-ions that a name gives are not always drawn.
Recorded pKi values (σ1-receptor (Cavia porcellus)) are given below.
As a rule, pKi stands for the negative log10 of the concentration, concentration in M.

NCCCOc1ccc2c(c1)[C@H]1OCC[C@H]1[C@@H](C1CCCCC1)N2 (racemic) [Example 106, hydrochloride]	7.60
COc1ccc2c(c1)[C@H]1OCCC[C@H]1[C@@H](C1CCN(Cc3ccc(Cl)cc3)CC1)N2 (racemic) [Example 109, hydrochloride]	7.57
CC(C)CCOc1ccc2c(c1)[C@H]1OCCC[C@H]1[C@@H](C1CCNCC1)N2 (racemic) [Example 100, hydrochloride]	6.27
Clc1cccc(Oc2ccc3c(c2)[C@H]2OCCC[C@H]2[C@@H](C2CCCCC2)N3)c1 (racemic) [Example 1, hydrochloride]	6.73
COc1ccc2c(c1)[C@H]1OCCC[C@H]1[C@@H](C1CCN(CCc3ccccc3)CC1)N2 (racemic) [Example 108, hydrochloride]	6.55

Please examine the following record next.
Query string: Form entry - test system: σ1-receptor (Cavia porcellus); read-out: pKi; compound: CCN1CCC([C@H]2Nc3ccc(OCCC(C)C)cc3[C@H]3OCCC[C@H]32)CC1 (racemic) [Example 110, hydrochloride]
Result string: 6.50
